Please go through the items and note down their melting point.

Ask | Query: melting point; subject: `O=C(c1cc(I)c(O)c(I)c1)c1c(Cc2ccccc2)oc2ccccc12`
Reply | 153 to 154 °C

Ask | So what does the record say about melting point for `CN1Cc2c(-c3nc(CN4Cc5ccccc5C4)no3)ncn2-c2ccccc2C1=O` ?
Reply | 155 to 160 °C

Ask | Which value of melting point has been reported for CC1=C(C#N)C(c2cccc3ncc(-c4ccccc4)cc23)C(C(=O)OC(C)C)=C(N)N1 (stereo not drawn) in the records?
Reply | 227 to 229 °C

Ask | I would be grateful if you could share the reported melting point for `Cc1cc2[nH]c(=O)c3cnccc3n2n1` .
Reply | > 300 °C

Ask | Find the recorded melting point belonging to `COc1ccc(-c2ccc(C)c3occc23)cc1` and report it.
Reply | 40 to 41 °C

Ask | Entry `CC(C)OC(=O)COc1ccc(C(=O)CBr)cc1` : reported melting point = ?
Reply | 60 to 61 °C

Ask | Give the measured melting point of `CC=CCn1c(C)c(C)c2cnnc(OCc3cccs3)c21` .
Reply | 72 to 75 °C

Ask | Need melting point, item `COc1ccc(NC(=O)C2=C(O)c3ccccc3S(=O)(=O)N2C)ccc1=O`
Reply | 215 to 218 °C

Ask | Recorded melting point of `CNC(=O)Cn1nnnc1S` , please.
Reply | 167 to 168 °C

Ask | Data request, read-out melting point, for `COc1ccc(N2CCN(Cc3c[nH]c4ncccc34)CC2)cc1`
Reply | 213 to 214 °C

Ask | Give its melting point value. Item: `CCOCc1nc2c(N)nc3cc(-c4cccc(C(N)=O)c4)cnc3c2n1CC(C)(C)O`
Reply | > 250 °C

Ask | Please look up its melting point: `FC(F)(F)CSc1nc2cc(Cl)c(Cl)cc2[nH]1`
Reply | 144 to 146 °C

Ask | Which melting point value belongs to `COCOc1ccc(-c2ncc3ncc(N4CCCCC4=O)cc3n2)cc1` ?
Reply | 202 to 204 °C

Ask | // returns reported melting point for input `Cc1ccc(C)c(C(Cl)=NNc2ccccc2)c1`
Reply | 48.5 to 49 °C

Ask | # query: melting point of entry COC1CNCc2cc3ccccc3n21 (stereo not drawn)
Reply | 120 to 122 °C

Ask | Give the measured melting point of CC1(CSc2ccccc2)COC2(CCCCCCCCCCC2)OO1 (stereo not drawn) .
Reply | 89 °C

Ask | Which measured melting point value corresponds to `CSc1nnc(Sc2cc(C(C)(C)C)c(O)c(C(C)(C)C)c2)s1` ?
Reply | 144 to 145 °C

Ask | Quick one: melting point for `CCc1onc(-c2ccc(Cl)cc2)c1CCC(=O)O` ?
Reply | 164 to 165 °C

Ask | Entry `Cc1oc2cc(NS(C)(=O)=O)c(Oc3ccccc3)cc2c(=O)c1C(=O)O` : reported melting point = ?
Reply | 238 to 241 °C

Ask | Query (compound): `Cc1noc(C)c1COc1ccc(-c2cc(O)c(SCCc3ccccc3)c(=O)o2)cc1` ; field requested: melting point
Reply | 152 to 154 °C

Ask | Record request: melting point value, item CCOC(=O)CC1C(=O)N(CCc2c[nH]c3cc(C)ccc23)CCN1C(=O)c1ccccc1 (stereo not drawn)
Reply | 155 °C

Ask | Need melting point, item `N#Cc1ccc(C(=O)CC2(O)OCCO2)cc1`
Reply | 151 to 152 °C

Ask | Entry `COc1cc2ncc(C#N)c(Nc3ccc(Cl)cc3C)c2cc1OC` : reported melting point = ?
Reply | 227 to 229 °C

Ask | # get_value(readout='melting point', item= `CC(=O)N[C@@H](C)CO[C@H]1CC[C@H](n2cc3ccc(OCCC4CC4)cc3n2)CC1` )
Reply | 98 to 99 °C

Ask | Reported melting point, compound `COc1ccc(NN)cc1F` : ____
Reply | 46 to 50 °C

Ask | What value of measured melting point is listed for `O=C(Nc1ccccc1C(F)(F)F)c1ccccc1` ?
Reply | 146 °C

Ask | Reported melting point, compound CC(CC(C(O)CC(C)(C)O)N(C)C)C1CCC2C(O)CCCC12C (stereo not drawn) : ____
Reply | 169 to 170 °C

Ask | Could you tell me which melting point is on file for `O=C(Cl)ON1C(=O)c2ccccc2C1=O` ?
Reply | 113 to 115 °C

Ask | Using the record for `Cc1nnc2c3ccc(Cl)cc3c(-c3ccccc3)nn12` , report its melting point.
Reply | 236 to 238 °C

Ask | Given the compound CC(O)c1ccc(-c2ccc(S(C)(=O)=O)cc2)o1 (stereo not drawn) , what is its reported melting point?
Reply | 118 to 120 °C

Ask | Bench note: what melting point did `O=C1Nc2ccccc2S(=O)(=O)c2cc(C(F)(F)F)ccc21` show?
Reply | 240 to 241 °C

Ask | What does the record list as melting point for `CCn1c([N+](=O)[O-])cnc1C=Cc1ccccc1` ?
Reply | 231 to 233 °C

Ask | Recorded melting point for `CC(C)(C)Oc1ccc2c(c1)Oc1ccccc1S2(=O)=O` , please?
Reply | 108 to 110 °C

====

property: melting point

Ask | Recorded melting point of `Cc1ccccc1C(=O)Nc1ccc(C(=O)N2c3ccccc3CCc3ccccc32)cc1` , please.
Reply | 112 to 118 °C

Ask | What does the data say about its melting point? Entry: `CC(C)n1nc(-c2sc(NC(=O)c3ccc(CN4CCCCC4)cc3)nc2-c2ccccc2)ccc1=O`
Reply | 136 to 138 °C

Ask | Quick check: melting point of `Cc1csc2c(S(N)(=O)=O)c(C(N)=O)nn12` ?
Reply | > 270 °C

Ask | Which melting point value belongs to `COc1ccccc1N1CCN(CCn2cnc3c(c2=O)CN(Cc2ccccc2)CC3)CC1` ?
Reply | 200 °C

Ask | Quick one: melting point of OCC1OC(n2cnc3c(NCc4ccccc4Cl)ncnc32)C(O)C1O (stereo not given) ?
Reply | 182 to 183 °C

Ask | Value lookup for melting point; key = `CCCCCCCCCCCCCCc1c[nH]c(C=O)c1`
Reply | 70 to 71 °C

Ask | Fill blank: measured melting point of the molecule `O=C1CCc2c(Cl)cc(Cl)c(OS(=O)(=O)C(F)(F)F)c21` is ____.
Reply | 90 to 96 °C

Ask | Please report the recorded melting point for `O=C(O)c1ccc(-c2ccc3c(c2)CCN(CCN2CCCC2)C3)cc1` .
Reply | 269 to 271 °C

Ask | Please give the measured melting point for this molecule: COc1ccc2c3c([nH]c2c1)C(=S)C(CC1CCN(Cc2ccccc2)CC1)C3 (stereo not given)
Reply | 180 to 181 °C

Ask | # get_value(readout='melting point', item= `CCCCNS(=O)(=O)c1ccc2[nH]c(=O)c(=O)[nH]c2c1` )
Reply | 257 to 262 °C

Ask | Value lookup for melting point; key = `CCC=NNC=C(C(=O)OCC)C(=O)c1cc(F)c(F)c(F)c1F`
Reply | 86 °C

Ask | Given the entry O=C1Nc2ccccc2C12COc1cc3c(cc12)N(Cc1ccccn1)CC=N3 (stereo not given) , report its measured melting point.
Reply | 232 to 233 °C

Ask | What melting point value was documented for this molecule, `NC(=O)c1cc2cc(OC(F)(F)F)cc(NS(=O)(=O)c3cccs3)c2[nH]1` ?
Reply | > 300 °C

Ask | // lookup melting point for CC(C)Oc1ccc(-c2nn(C(C)c3oc4cccc(F)c4c(=O)c3-c3cccc(F)c3)c3ncnc(N)c23)cc1F (stereo not given)
Reply | 228 to 230 °C

Ask | Entry under review: `CCCc1nc2c(N)nc3ccc(-c4ccc(F)cc4CN)cc3c2s1` . Reported melting point?
Reply | 198 to 201 °C

====

What melting point was measured for each of the following?
Reply numerically in °C, unit not repeated.

Ask | Bench note: what melting point did `COc1cc2[nH]nc(C(=O)NN=Cc3ccc([N+](=O)[O-])o3)c2cc1OC` show?
Reply | 334

Ask | Fill in the blank: the reported melting point of NC(=S)C1CCCc2cccnc21 (stereo not drawn) is ____.
Reply | 160

====

property: melting point

Ask | Form field: reported melting point of `CCOC(=O)C(=O)Nc1cc([N+](=O)[O-])c2ccccc2c1NC(=O)C(=O)OCC`
Reply | 183 to 184 °C

Ask | Which melting point value belongs to `CN1CN(c2ccccc2)c2ncccc2C1=O` ?
Reply | 140 to 141 °C

Ask | Quick check: melting point of `NS(=O)(=O)c1ccc(C2=C(c3ccc(F)cc3)CC3(CCC3)C2)cc1` ?
Reply | 118 to 119 °C

Ask | Bench note: what melting point did `CC1(C(=O)c2c[nH]c3ncc(Br)nc23)CCCCC1` show?
Reply | 198 to 199 °C

Ask | // query melting point value for entry `Cc1cc(OCC(=O)O)cc(C)c1SCc1sc(-c2ccc(C(F)(F)F)cc2)nc1C`
Reply | 184 to 185 °C

Ask | Reported melting point, compound C=CCC(C(=O)NC)c1ccc(F)cc1 (stereo not drawn) : ____
Reply | 104 to 105 °C

Ask | So what's the measured melting point for this one? `c1cc(COc2ccc(OCc3ccc4ccccc4n3)cc2)cc(OCc2nnn[nH]2)c1`
Reply | 131 to 132 °C

Ask | I'd like to know its melting point. The compound in question is Cc1ncc(N2N=C(c3ccc([N+](=O)[O-])cc3)c3cc4c(cc3CC2C)OCO4)o1 (stereo not drawn)
Reply | 203 to 205 °C

Ask | Item `Cc1cc(-n2ccnc2)c2cccc(OCc3c(Cl)ccc(S(=O)(=O)N4CCC(CO)CC4)c3Cl)c2n1` has what recorded melting point?
Reply | 100 °C

Ask | Please give the measured melting point for this compound: `CC(C)(C)OC(=O)N(Cc1ccc(C(=O)O)cc1)c1ccc(C2CCCCC2)cc1`
Reply | 192 to 194 °C

Ask | # lookup: melting point of `Cc1cccc(NC(=O)NCC(=O)N(CC(=O)N(C)c2ccc(F)c(F)c2)c2ccccc2)c1`
Reply | 163 °C

Ask | Look up melting point: CN1C(=O)C2(COc3cc4c(cc32)OCCO4)c2c(NC(=O)C3CCC3)cccc21 (stereo not drawn)
Reply | 234 to 236 °C

Ask | Which melting point is listed for `COc1cc2ncc(C#N)c(Nc3cccc(C(C)=O)c3)c2cc1OC` ?
Reply | 204 to 206 °C

Ask | Which melting point value is on record for `Nc1ccc(S)c(C(F)(F)F)c1` ?
Reply | 35 to 36.5 °C

Ask | Recorded melting point for COC(=O)c1ccc(C#CC(O)c2ccc3c(c2)C(C)(C)CCC3(C)C)cc1O (stereo not drawn) , please?
Reply | 92 to 93 °C

Ask | What melting point value was documented for this compound, CC(C(=O)Nc1ccc(C(=O)c2cccs2)cc1)c1ccccc1 (stereo not drawn) ?
Reply | 140 °C

Ask | Give its melting point value. Item: CN(C)C(=O)NCc1cccc2c1CN(C1CCC(=O)NC1=O)C2=O (stereo not drawn)
Reply | 169 to 171 °C

Ask | Entry `CCCCCCN(Cc1ccc2ccccc2n1)C(Nc1cc(C(C)(C)C)c(O)c(C(C)(C)C)c1)=C1C(=O)OC(C)(C)OC1=O` : reported melting point = ?
Reply | 161 to 163 °C

Data provenance: a melting point compilation (Tetko et al.; mined from patent text by program, amines drawn as free bases though some values may be those of a salt)
